Assay Metric: melting point

Examples from the recorded data:
Name the recorded melting point of the item "O=C(c1ccccc1)c1cccc(Cc2c(O)c3ccc(Cl)cc3[nH]c2=O)c1" in your answer. 294 to 295 °C

Name the recorded melting point of the item COc1ccnc(N2CCN(Cc3ccc(C(C)NC(C)=O)cc3)CC2)n1 (stereo not drawn) in your answer. 113 to 115 °C

Name the recorded melting point of the item "COc1cc2c(cc1OC)CN(CCCOc1ccc(N)cc1)CC2" in your answer. 100 °C

Name the recorded melting point of the item CCOc1cc2c(cc1OC(C)=O)C(=O)CC1C2CCC2(C)C(OC(C)=O)CCC12 (stereo not drawn) in your answer. 195 °C

Name the recorded melting point of the item "NC[C@H]1C=Cc2cc(F)cc(-c3ccccc3Cl)c2O1" in your answer. 145 to 147 °C

Name the recorded melting point of the item "O=C(O)/C=C/c1ccc(-c2nc3c(=O)n(CCC4CCCCC4)c(=O)n(CCC4CCCCC4)c3[nH]2)cc1" in your answer. > 250 °C

Further cases:
Name the recorded melting point of the item "CCOc1cc(OCC(=O)O)cc2c1C(=O)N(COC(=O)c1c(Cl)cccc1Cl)S2(=O)=O" in your answer. 179 to 180 °C

Name the recorded melting point of the item "Cc1cc(C)c(S(=O)(=O)N[C@@H](CNC(=O)c2ccc3c(cnn3CCc3cc(=O)[nH]c(N)n3)c2)C(=O)O)c(C)c1" in your answer. 194 to 195 °C

Name the recorded melting point of the item CC1(C)CCC23CCC4(C)C(CCC5C6(C)CCC(O)C(C)(C)C6CCC54C)C2C1OC3 (stereo not drawn) in your answer. 268 to 269 °C

Name the recorded melting point of the item "CC(=O)Nc1cc(N(CCO)CCO)ccc1N=Nc1snc(C)c1C#N" in your answer. 188 to 189 °C

Name the recorded melting point of the item "CCCCCCc1cnc(-c2ccc(OC[C@H]3CC[C@H](CCCC)CC3)cc2)nc1" in your answer. 99 °C

Name the recorded melting point of the item "CN1CC(=O)Nc2ncccc2C1=O" in your answer. 245 to 247 °C

Name the recorded melting point of the item "CN1CC=C(c2cnn3c(-c4cccc(NC(=O)c5cccc(C(F)(F)F)c5)c4)ccnc23)CC1" in your answer. 163 to 165 °C

Name the recorded melting point of the item "O=C(O)CCC1c2ccccc2-c2ccccc21" in your answer. 216 to 217 °C

Name the recorded melting point of the item O=C1N(CC2COCCO2)c2ccccc2C12COc1cc3c(cc12)OCO3 (stereo not drawn) in your answer. 147 to 149 °C

Name the recorded melting point of the item "Cc1cc(F)ccc1-c1nc(NC(C)(CO)CO)nc2c1ccc(=O)n2-c1ccccc1F" in your answer. 160 to 162 °C

Name the recorded melting point of the item CC(=O)OC1CSC(Oc2cccnc2C(=O)N2CCCCC2)C(OC(C)=O)C1OC(C)=O (stereo not drawn) in your answer. 89 to 92 °C

Name the recorded melting point of the item "Cc1cc(N)c(C)c2c1OC(C)(C)C2=O" in your answer. 124 to 126 °C

Name the recorded melting point of the item "C=CCOC(=O)c1ccc(C(=O)SCc2ccc3c(c2)C(C)(C)CCC3(C)C)cc1" in your answer. 79 to 80 °C

Name the recorded melting point of the item Cc1nc2ccc3c(c2o1)C(CCNC(=O)c1ccccc1)CC3 (stereo not drawn) in your answer. 73 to 76 °C

Name the recorded melting point of the item "C#CCOC(=O)c1cc(C)oc1C" in your answer. 35 to 37 °C
